Attribution: patent US20250066335A1

Biological target: UniProt Q9NQS5
Assay: PRESTO-Tango β-arrestin2 recruitment assay, GPR84 antagonistic activity
Conditions: antagonist activity in the Presto-TANGO assay; inhibition of the response from the agonist ZQ-16 (100 nM); HTLA cells
pIC50: −log10 of the molar value.
reportedProperty: pIC50

# molecule, valueMeasured
records = [
    ("CCCc1ccc(CCc2nc(OCC3CCCCO3)cc(O)c2-c2ccc(C(=O)O)cc2)cc1 (centres unmarked) [Example 21]", 6.85),
]

P = CCc1c(O)cc(OCC2COCCO2)nc1CCc1ccc(O)cc1 (centres unmarked) [Example 43]
Q = [2H]C([2H])([2H])C([2H])([2H])Oc1ccc(C([2H])([2H])C([2H])([2H])c2nc(OCC3COCCO3)cc(O)c2CC)cc1 (centres unmarked) [Example 44]
Query: Which gives the smaller pIC50 number: P or Q ? Pick one; state its label.
Result: P
(P: 8.97, Q: 9.68)

* * *

Molecular target: GPR84 (Homo sapiens)
Experiment: PRESTO-Tango β-arrestin2 recruitment assay, GPR84 antagonistic activity
Conditions: antagonist activity in the Presto-TANGO assay; inhibition of the response from the agonist ZQ-16 (100 nM); HTLA cells
reportedProperty: IC50 (pM)

# compound, studySystem, IC50 [pM]
rows = [
    ("CCCc1ccc(CCc2nc(OCC3COCCO3)cc(O)c2CC)cc1 (centres unmarked)", "GPR84 (Homo sapiens)", 776),
]

1 = CCc1c(O)cc(OCC2COCCO2)nc1CCc1ccc(OCCCNC(=O)OC(C)(C)C)cc1 (centres unmarked)
2 = CCCc1ccc(CCc2nc(OCC3CCCCO3)cc(O)c2-c2ccccc2)cc1 (centres unmarked)
Query: // pick larger IC50 from pair: 1 vs 2 The response must carry the label of the picked entry.
Result: 2
(2: 85100 pM, 1: 302 pM)

* * *

Molecular target: GPR84 (Homo sapiens, UniProt Q9NQS5)
Sequence (Q9NQS5 whole entry): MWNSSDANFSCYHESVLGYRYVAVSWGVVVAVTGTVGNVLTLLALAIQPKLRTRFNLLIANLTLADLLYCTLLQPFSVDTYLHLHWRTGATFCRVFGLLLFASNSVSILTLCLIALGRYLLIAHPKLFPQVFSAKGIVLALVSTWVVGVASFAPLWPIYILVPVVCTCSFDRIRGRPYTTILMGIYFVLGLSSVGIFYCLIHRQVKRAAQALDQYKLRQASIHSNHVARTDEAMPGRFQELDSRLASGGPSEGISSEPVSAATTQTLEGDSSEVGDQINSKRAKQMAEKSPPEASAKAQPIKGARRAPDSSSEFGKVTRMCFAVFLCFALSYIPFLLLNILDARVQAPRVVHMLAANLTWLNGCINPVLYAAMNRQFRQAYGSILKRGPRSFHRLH
Assay: PRESTO-Tango β-arrestin2 recruitment assay, GPR84 antagonistic activity
Details: antagonist activity in the Presto-TANGO assay; inhibition of the response from the agonist ZQ-16 (100 nM); HTLA cells
Experimental: PRESTO-Tango β-arrestin recruitment assay (W.K. Kroeze et al., 2015). […] After incubation for 20 min at room temperature, luminescence was counted in an Enspire luminescence counter at 384 nm. Results in the form of relative luminescence units (RLU) were exported into Excel spreadsheets, and GraphPad Prism was used for analysis of data. […]
pIC50: −log10 of the molar value.
reportedProperty: pIC50

Solved entries:
# compound, studySystem, valueMeasured
rows = [
    ("CCOC(=O)COc1ccc(CCc2nc(OCC3COCCO3)cc(O)c2C)cc1 (stereo not drawn)", "GPR84 (Homo sapiens, UniProt Q9NQS5)", 7.95),
    ("CCc1c(O)cc(OCC2COCCO2)nc1CCc1ccc(OCc2nc(C(=O)O)co2)cc1 (stereo not drawn)", "GPR84 (Homo sapiens, UniProt Q9NQS5)", 8.27),
    ("CCc1c(O)cc(OCC2COCCO2)nc1CCc1ccc(OCCCCC(=O)O)cc1 (stereo not drawn)", "GPR84 (Homo sapiens, UniProt Q9NQS5)", 8.39),
    ("CCOc1ccc(CCc2nc(OCC3COCCO3)cc(O)c2C)cc1 (stereo not drawn)", "GPR84 (Homo sapiens, UniProt Q9NQS5)", 8.48),
    ("CCCc1ccc(CCc2nc(OCC3CCCCO3)cc(O)c2CCC(=O)O)cc1 (stereo not drawn)", "GPR84 (Homo sapiens, UniProt Q9NQS5)", 8.95),
]

A = CCc1c(O)cc(OC[C@@H]2COCCO2)nc1CCc1ccc(OC)c(OC)c1
B = CCCc1ccc(CCc2nc(OCC3CCCCO3)cc(O)c2C(C)C)cc1 (stereo not drawn)
Query: Returns: the label, A or B , whose recorded pIC50 is the lower number. Could you answer with the label of the item you picked?
Result: B
